- Organism: Homo sapiens
- assay: Selectivity ratio of Ki for human 5HT3A receptor to Ki for human 5HT4c receptor
result type: Ratio Ki

| molecule | Ratio Ki |
| --- | --- |
| COC(=O)NCC(O)CN1[C@@H]2CC[C@H]1C[C@@H](NC(=O)c1cc3ccccc3n(C(C)C)c1=O)C2 (mixture of isomers) | 1600 |

[1] CC(C)n1c(=O)c(C(=O)N[C@H]2C[C@H]3CC[C@@H](C2)N3CC(O)CNC(=O)N(C)C)cc2ccccc21 (mixture of isomers)
[2] CNC(=O)NCC(O)CN1[C@@H]2CC[C@H]1C[C@@H](NC(=O)c1cc3ccccc3n(C(C)C)c1=O)C2 (mixture of isomers)
[3] CC(=O)N(C)CC(O)CN1[C@@H]2CC[C@H]1C[C@@H](NC(=O)c1cc3ccccc3n(C(C)C)c1=O)C2 (mixture of isomers)
[4] CC(C)n1c(=O)c(C(=O)N[C@H]2C[C@H]3CC[C@@H](C2)N3CC(O)CN(C)C(=O)N(C)C)cc2ccccc21 (mixture of isomers)
input: Arrange the 4 molecules from largest to smallest Ratio Ki. Output spec: a listing of the labels in the requested order.
output: 2, 3, 1, 4
(2: 2400, 3: 1500, 1: 860, 4: 260)

[a] CC(C)n1c(=O)c(C(=O)N[C@H]2C[C@H]3CC[C@@H](C2)N3CC(O)CNS(C)(=O)=O)cc2ccccc21 (mixture of isomers)
[b] COC(=O)N(C)CC(O)CN1[C@@H]2CC[C@H]1C[C@@H](NC(=O)c1cc3ccccc3n(C(C)C)c1=O)C2 (mixture of isomers)
input: Hi there! Just curious which has the higher Ratio Ki between a and b . Return value: the label identifying the chosen record.
output: a

[P] CC(C)n1c(=O)c(C(=O)N[C@H]2C[C@H]3CC[C@@H](C2)N3CC(O)CNC(N)=O)cc2ccccc21 (mixture of isomers)
[Q] CC(=O)NCC(O)CN1[C@@H]2CC[C@H]1C[C@@H](NC(=O)c1cc3ccccc3n(C(C)C)c1=O)C2 (mixture of isomers)
input: Hi there! Just curious which has the higher Ratio Ki between P and Q . Return value: the label identifying the chosen record.
output: P
(P: 3300, Q: 2200)

[P] CNC(=O)N(C)CC(O)CN1[C@@H]2CC[C@H]1C[C@@H](NC(=O)c1cc3ccccc3n(C(C)C)c1=O)C2 (mixture of isomers)
[Q] CC(C)n1c(=O)c(C(=O)N[C@H]2C[C@H]3CC[C@@H](C2)N3CC(O)CN(C)C(N)=O)cc2ccccc21 (mixture of isomers)
input: Between P and Q , which one has the lower reported Ratio Ki value? Return value: the label identifying the chosen record.
output: P

* * *

Hi! I'm sharing some Ki results obtained with 5-hydroxytryptamine receptor 4 (Homo sapiens).
result type: Ki (nM)

Below: 2 compounds and their reported Ki.
| compound | scale unit | Ki |
| --- | --- | --- |
| CC(C)n1c(=O)c(C(=O)N[C@H]2C[C@H]3CC[C@@H](C2)N3CC(O)CN(C)C(=O)N(C)C)cc2ccccc21 (mixture of isomers) | nM | 50.1 |
| CC(=O)NCC(O)CN1[C@@H]2CC[C@H]1C[C@@H](NC(=O)c1cc3ccccc3n(C(C)C)c1=O)C2 (mixture of isomers) | nM | 31.6 |

[a] CNC(=O)NCC(O)CN1[C@@H]2CC[C@H]1C[C@@H](NC(=O)c1cc3ccccc3n(C(C)C)c1=O)C2 (mixture of isomers)
[b] CC(=O)N(C)CC(O)CN1[C@@H]2CC[C@H]1C[C@@H](NC(=O)c1cc3ccccc3n(C(C)C)c1=O)C2 (mixture of isomers)
input: Hi there! Just curious which has the higher Ki between a and b . Return value: the label identifying the chosen record.
output: b
(b: 39.8 nM, a: 25.1 nM)

* * *

- measurement target: 5-hydroxytryptamine receptor 4 (Homo sapiens)
- assay: biochemical
- Description: Displacement of [3H]GR113808 from human recombinant 5HT4c receptor expressed in HEK293 cells
result type: Ki (nM)

| molecule | result type | quantitative result |
| --- | --- | --- |
| CC(C)n1c(=O)c(C(=O)N[C@H]2C[C@H]3CC[C@@H](C2)N3CC(O)CN(C)C(N)=O)cc2ccccc21 (mixture of isomers) | Ki | 50.1 |
| COC(=O)N(C)CC(O)CN1[C@@H]2CC[C@H]1C[C@@H](NC(=O)c1cc3ccccc3n(C(C)C)c1=O)C2 (mixture of isomers) | Ki | 39.8 |

[I] COC(=O)NCC(O)CN1[C@@H]2CC[C@H]1C[C@@H](NC(=O)c1cc3ccccc3n(C(C)C)c1=O)C2 (mixture of isomers)
[II] CC(C)n1c(=O)c(C(=O)N[C@H]2C[C@H]3CC[C@@H](C2)N3CC(O)CNC(N)=O)cc2ccccc21 (mixture of isomers)
input: Hi there! Just curious which has the higher Ki between I and II . Return value: the label identifying the chosen record.
output: I
(I: 50.1 nM, II: 15.8 nM)

* * *

- measurement target: 5-hydroxytryptamine receptor 7 (Homo sapiens, UniProt P34969)
- Sequence (P34969 whole entry): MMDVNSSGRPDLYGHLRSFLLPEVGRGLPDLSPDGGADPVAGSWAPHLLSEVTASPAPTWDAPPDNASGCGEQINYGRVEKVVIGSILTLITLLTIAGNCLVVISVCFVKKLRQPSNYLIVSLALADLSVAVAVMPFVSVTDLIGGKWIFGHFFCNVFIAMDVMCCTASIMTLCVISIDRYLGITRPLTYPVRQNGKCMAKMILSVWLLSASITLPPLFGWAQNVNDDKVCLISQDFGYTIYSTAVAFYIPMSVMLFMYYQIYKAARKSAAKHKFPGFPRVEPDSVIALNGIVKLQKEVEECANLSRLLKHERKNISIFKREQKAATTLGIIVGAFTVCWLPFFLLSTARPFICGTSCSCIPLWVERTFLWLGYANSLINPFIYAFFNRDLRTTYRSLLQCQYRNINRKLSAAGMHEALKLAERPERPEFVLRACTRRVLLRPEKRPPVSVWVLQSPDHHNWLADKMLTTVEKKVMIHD
result type: Ki

The measured Ki that "CC(C)n1c(=O)c(C(=O)N[C@H]2C[C@H]3CC[C@@H](C2)N3C[C@@H](O)CN(C)S(C)(=O)=O)cc2ccccc21" showed for 5-hydroxytryptamine receptor 7 (Homo sapiens, UniProt P34969) is < 0.1 µM

* * *

- measurement target: 5-hydroxytryptamine receptor 4 (Homo sapiens, UniProt Q13639)
- Sequence (Q13639 whole entry): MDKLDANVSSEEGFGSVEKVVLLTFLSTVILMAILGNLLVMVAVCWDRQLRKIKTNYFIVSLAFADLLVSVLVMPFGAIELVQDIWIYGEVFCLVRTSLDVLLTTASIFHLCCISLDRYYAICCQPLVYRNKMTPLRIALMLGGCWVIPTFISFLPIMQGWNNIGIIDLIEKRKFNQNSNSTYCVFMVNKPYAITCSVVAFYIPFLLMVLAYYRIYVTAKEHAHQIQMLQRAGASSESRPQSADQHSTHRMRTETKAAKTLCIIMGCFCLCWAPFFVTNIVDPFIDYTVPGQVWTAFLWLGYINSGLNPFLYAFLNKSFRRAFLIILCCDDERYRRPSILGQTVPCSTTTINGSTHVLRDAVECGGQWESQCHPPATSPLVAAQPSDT
pEC50: −log10 of the molar value.
result type: pEC50

Below: 5 molecules and their reported pEC50.
| molecule | pEC50 |
| --- | --- |
| CC(=O)N(C)CC(O)CN1[C@@H]2CC[C@H]1C[C@@H](NC(=O)c1cc3ccccc3n(C(C)C)c1=O)C2 (mixture of isomers) | 7.90 |
| CC(C)n1c(=O)c(C(=O)N[C@H]2C[C@H]3CC[C@@H](C2)N3CC(O)CN(C)C(N)=O)cc2ccccc21 (mixture of isomers) | 7.70 |
| CCCCCNC(=N)N/N=C/c1c[nH]c2ccc(OC)cc12 [TEGASEROD] | 8.60 |
| CNC(=O)N(C)CC(O)CN1[C@@H]2CC[C@H]1C[C@@H](NC(=O)c1cc3ccccc3n(C(C)C)c1=O)C2 (mixture of isomers) | 7.50 |
| CC(C)n1c(=O)c(C(=O)N[C@H]2C[C@H]3CC[C@@H](C2)N3CC(O)CNS(C)(=O)=O)cc2ccccc21 (mixture of isomers) | 8.10 |

[a] COC(=O)N(C)CC(O)CN1[C@@H]2CC[C@H]1C[C@@H](NC(=O)c1cc3ccccc3n(C(C)C)c1=O)C2 (mixture of isomers)
[b] CC(C)n1c(=O)c(C(=O)N[C@H]2C[C@H]3CC[C@@H](C2)N3CC(O)CN(C)C(=O)N(C)C)cc2ccccc21 (mixture of isomers)
[c] CC(C)n1c(=O)c(C(=O)N[C@H]2C[C@H]3CC[C@@H](C2)N3CC(O)CNC(N)=O)cc2ccccc21 (mixture of isomers)
input: Rank items: key pEC50, increasing. Output spec: a listing of the labels in the requested order.
output: b, a, c

[a] CC(=O)NCC(O)CN1[C@@H]2CC[C@H]1C[C@@H](NC(=O)c1cc3ccccc3n(C(C)C)c1=O)C2 (mixture of isomers)
[b] CNC(=O)NCC(O)CN1[C@@H]2CC[C@H]1C[C@@H](NC(=O)c1cc3ccccc3n(C(C)C)c1=O)C2 (mixture of isomers)
input: Between a and b , which one has the lower reported pEC50 value? Return value: the label identifying the chosen record.
output: b
(b: 7.90, a: 8.20)

* * *

- assay: Half life in Sprague-Dawley rat at 5 mg/kg, po
- Type: ADME, organism-based
- Parameters: dose 5 mg/kg, route oral
- condition summary: in vivo
result type: half-life (h)
Dear colleague, please return just the value in h, with no unit written.

response.value for "CC(C)n1c(=O)c(C(=O)N[C@H]2C[C@H]3CC[C@@H](C2)N3C[C@@H](O)CN(C)S(C)(=O)=O)cc2ccccc21" (field: half-life) = 1.9

* * *

- measurement target: 5-hydroxytryptamine receptor 4 (Homo sapiens)
- assay: Agonist activity at human recombinant 5HT4c receptor expressed in HEK293 cells at 10-fold physiological level assessed as accumulation of cAMP relative to 5HT
- Format: functional, cell-based
result type: Intrinsic activity (%)

| molecule | scale unit | Intrinsic activity |
| --- | --- | --- |
| CCCCCNC(=N)N/N=C/c1c[nH]c2ccc(OC)cc12 | % | 92 |
| CC(C)n1c(=O)c(C(=O)N[C@H]2C[C@H]3CC[C@@H](C2)N3CC(O)CNC(N)=O)cc2ccccc21 (mixture of isomers) | % | 82 |
| CNC(=O)N(C)CC(O)CN1[C@@H]2CC[C@H]1C[C@@H](NC(=O)c1cc3ccccc3n(C(C)C)c1=O)C2 (mixture of isomers) | % | 95 |
| CC(C)n1c(=O)c(C(=O)N[C@H]2C[C@H]3CC[C@@H](C2)N3CC(O)CNS(C)(=O)=O)cc2ccccc21 (mixture of isomers) | % | 107 |
| CC(=O)NCC(O)CN1[C@@H]2CC[C@H]1C[C@@H](NC(=O)c1cc3ccccc3n(C(C)C)c1=O)C2 (mixture of isomers) | % | 96 |
| CC(C)n1c(=O)c(C(=O)N[C@H]2C[C@H]3CC[C@@H](C2)N3C[C@@H](O)CN(C)S(C)(=O)=O)cc2ccccc21 | % | 95 |
